- ASSAY PROTOCOL: qHTS assay to identify small molecule agonists of the vitamin D receptor (VDR) signaling pathway - cell viability counter screen (AID 743224); also: nearly all actives have a fitted effect of over 50% in size
- CONDITION DESCRIPTION: VDR-bla HEK293T viability, CellTiter-Glo luminescence, 16 h; series mostly up to 62.6 µM
Inconclusive results are not listed. The source made the active and inactive calls. Calls follow the shape of the dose curve; as a rule, active = well fitted cell-killing curve with a large enough effect in the repeat runs; inconclusive = weak or mixed curves, or effect the other way; inactive = no such curve, though single readings can be large or run the other way.
Tick one outcome: label 1 = active, label 0 = inactive

Take a look at these entries with their results.
INSERT INTO measurements (molecule, assigned_class) VALUES
  ('Cc1ccc(C(N)=O)cc1N', 'label 0'),
  ('CCN(CC)C(C)CN1c2ccccc2Sc2ccccc21 (stereo unspecified)', 'label 0'),
  ('CNS(=O)(=O)Cc1ccc2[nH]cc(CCN(C)C)c2c1', 'label 0'),
  ('CN(C(=O)CCCOc1ccc2[nH]c(=O)ccc2c1)C1CCCCC1', 'label 0'),
  ('Oc1ccc(C(O)CNCCCCCCNCC(O)c2ccc(O)c(O)c2)cc1O (stereo unspecified)', 'label 0');

Task item: // outcome(item) with item = O=C1Nc2cc(Cl)ccc2Oc2ccccc21
Reply: label 0

Task item: // outcome(item) with item = CN(C)C/C=C(/c1ccc(Br)cc1)c1cccnc1
Reply: label 0

Task item: // outcome(item) with item = CN(C)CC[C@@H](c1ccc(Br)cc1)c1ccccn1
Reply: label 0

Task item: // outcome(item) with item = O=C(CCN1CCN2CCCC2C1)N1c2ccccc2Sc2ccc(Cl)cc21 (stereo unspecified)
Reply: label 0

Task item: // outcome(item) with item = CCCCCCCCC(CO)CCCCCC (stereo unspecified)
Reply: label 0

Task item: // outcome(item) with item = COC(Cc1ccccc1)OC
Reply: label 0

Task item: // outcome(item) with item = CC(C)CCCCCCOC(=O)c1ccc(C(=O)OCCCCCCC(C)C)c(C(=O)OCCCCCCC(C)C)c1
Reply: label 0

Task item: // outcome(item) with item = C[C@@H](C1=C(CCN(C)C)Cc2ccccc21)c1ccccn1
Reply: label 0

Task item: // outcome(item) with item = CCCCCCCCCCCCC(=O)O
Reply: label 0

Task item: // outcome(item) with item = O=C(c1ccc(O)cc1)c1ccc(O)cc1
Reply: label 0

Task item: // outcome(item) with item = c1ccc(-c2nc[nH]c2-c2ccccc2)cc1
Reply: label 0

Task item: // outcome(item) with item = CC(C)(C)C(=O)OCOP(=O)(COCCn1cnc2c(N)ncnc21)OCOC(=O)C(C)(C)C
Reply: label 0

Task item: // outcome(item) with item = CC(Cc1cccc(C(F)(F)F)c1)NCCOC(=O)c1ccccc1 (stereo unspecified)
Reply: label 1

Task item: // outcome(item) with item = ClC(Cl)(Cl)c1ccc(C(Cl)(Cl)Cl)cc1
Reply: label 0

Task item: // outcome(item) with item = Nc1nc(N)c(-c2ccccc2)s1
Reply: label 0

Task item: // outcome(item) with item = CCCCOc1cc(C(=O)OCCN(CC)CC)ccc1N
Reply: label 0

Task item: // outcome(item) with item = Cl/C(=C\n1cncn1)c1ccc(Cl)cc1Cl
Reply: label 0

Task item: // outcome(item) with item = CCCCCCOC(=O)CCC
Reply: label 0

Task item: // outcome(item) with item = O=C(O)[C@@H]1[C@H]2C[C@H]3c4[nH]c5ccccc5c4CCN3C[C@@H]2CC[C@@H]1O
Reply: label 0

Task item: // outcome(item) with item = O=C(O)Cn1c(C(=O)Nc2nc(-c3ccccc3Cl)cs2)cc2ccccc21
Reply: label 0

Task item: // outcome(item) with item = COCCO
Reply: label 0
